Tested on: SN12C renal
Assay: NCI-60 one-dose screen, 48 h
Settings: 10 µM unless noted
About 83,000 compounds went through this panel and 20% of them were active in at least one assay; those are over-represented in the sample as a whole. Activity calls are given as the source filed them. Rule for the calls: active = growth percent below 10; inactive = the rest.
The reply should name one outcome from active, inactive

Exercise: State the result this test recorded for COc1ccc(-n2nc(C)c3c(Nc4ccc(NC(=O)Nc5c(Cl)cccc5Cl)cc4)ncnc32)cc1 .
Key: inactive

Exercise: Note, next up: O=C(N(c1ccccc1)c1ccccc1)n1ccc2nc(Cl)nc(Cl)c21
Key: inactive

Exercise: Note, next up: O=C1C=CC(=O)N1c1ccc2c(c1)Cc1cc(F)ccc1-2
Key: inactive

Exercise: Note, next up: Nc1ccc(-c2cc3c(Nc4ccc(Oc5cccc(C(F)(F)F)c5)c(Cl)c4)ncnc3s2)cc1
Key: inactive

Exercise: Note, next up: O=C1/C(=C/c2ccc(Cl)cc2)SC(=S)N1CCc1ccc(O)cc1
Key: inactive

Exercise: Note, next up: CCCCCCCCCCCCC[N+](C)(C)Cc1ccccc1
Key: active

Exercise: Note, next up: Cn1c(=O)[nH]c(=O)c2nc(CCC(=O)NCCC(=O)O)c(=O)[nH]c21
Key: inactive

Exercise: Note, next up: CC[C@H]1OC(=O)[C@H](C)[C@@H](O[C@H]2C[C@@](C)(OC)[C@@H](O)[C@H](C)O2)[C@H](C)[C@@H](O[C@@H]2O[C@H](C)C[C@H](N(C)C)[C@H]2O)[C@](C)(O)C[C@H](C)CN(C)[C@H](C)[C@@H](O)[C@]1(C)O
Key: inactive

----------
System: KM12 colon
Assay: NCI-60 one-dose screen, 48 h (100 = growth as untreated, 0 = no growth, -100 = all killed)
Settings: 10 µM unless noted
Procedure: Growth inhibition of the KM12 human tumor cell line is measured as a screen for anti-cancer activity. Cells are grown in 96 well plates and exposed to the test compound for 48 hours. Compounds are tested at a single concentration, which is 10^-5 M for most compounds. The reported endpoint is percent growth (GI% or GIPRCNT), where numbers from 0 - 100% represent growth inhibition, and numbers from -100% - 0 represent cell death. For example, a value of 40 represents 60% growth inhibition. […]
This is part of a sample that, as a whole, favours compounds with a hit. Of some 83,000 tested, about 20% had one in any assay.
readout_type: growth (%)
Quick reminder: number only, in %, skip the unit.

Exercise: Data request, read-out growth, for CCC(=O)c1ccc(Cl)s1
Key: 107

Exercise: Note, next up: CC(=O)O[C@H]1C(=O)[C@@]2(C)[C@H]([C@H](OC(=O)c3ccccc3)[C@]3(O)C[C@H](OC(=O)[C@H](OC(=O)CCC(=O)OC4CCC(S/N=C(N)/N=C(\N)N(C)C)CC4)[C@@H](NC(=O)c4ccccc4)c4ccccc4)C(C)=C1C3(C)C)[C@]1(OC(C)=O)CO[C@@H]1C[C@@H]2O (stereo partly drawn)
Key: 10.7

Exercise: Note, next up: CC(=O)c1cc(C(=O)c2ccc3c(c2)Sc2ccccc2N3)n2ccccc12
Key: 9.91

Exercise: Note, next up: CC/C=C\C[C@H](O)C/C=C1/C(=O)C=C[C@@]1(C)C/C=C\CCCC(=O)OC
Key: 102

Exercise: Note, next up: COc1cc(/C=C/c2cc(/C=C/c3ccc(O)c(OC)c3)n(-c3c(C)cccc3C)c(=O)n2)ccc1O
Key: 11.6

Exercise: Note, next up: COc1cccc(/C=N/NC(=O)c2ccccc2Nc2ccnc(C(F)(F)F)c2)c1O
Key: 38.8

Exercise: Note, next up: C#CC(F)(F)[C@]1(O)CC[C@H]2[C@@H]3CCC4=CC(=O)CCC4=C3[C@@H](c3ccc(C(C)=O)cc3)C[C@@]21C
Key: 29.8

Exercise: Note, next up: Fc1ccc(CNc2cccc3[nH]c(C(F)(F)F)nc23)cc1
Key: 90.6

Exercise: Note, next up: COc1cc2c(cc1-c1c(C)noc1C)ncc1nc(-c3ccccn3)n([C@H](C)COC(F)F)c12
Key: 47.4

Exercise: Note, next up: Cn1c(NCCc2ccc(O)c(O)c2)nc2c1c(=O)n(Cc1ccc(Cl)c(Cl)c1)c(=O)n2C
Key: 71.9

Exercise: Note, next up: COc1cccc(-c2nc(SCC(=O)Nc3ccc(C(=O)/C=C/c4ccc(OC)c(OC)c4)cc3)[nH]c(=O)c2C#N)c1
Key: 81.5

Exercise: Note, next up: COc1cc(Nc2cc(C)nc(N3CCN(c4ccnc5cc(Cl)ccc45)CC3)n2)cc(OC)c1
Key: 3.72

Exercise: Note, next up: COc1cccc(-c2nc3sccn3c2-c2ccnc(NCCCNS(=O)(=O)c3c(Cl)cccc3Cl)c2)c1
Key: 68.2

Exercise: Note, next up: Nc1ccn(-c2ccc(Br)cc2)c(=O)n1
Key: 121

Exercise: Note, next up: CCOc1ccc(-n2nc(C(=O)Nc3cc(OC)c(OC)c(OC)c3)nc2-c2cc(OC)c(OC)c(OC)c2)cc1
Key: 81.8

Exercise: Note, next up: Oc1ccc(N=Cc2ccccc2O)cc1
Key: 88.8

Exercise: Note, next up: COC(=O)c1ccc(NC(=O)c2ccc(-c3cccc([N+](=O)[O-])c3)o2)cc1
Key: 102

Exercise: Note, next up: CCOc1cc2ncc(C#N)c(Nc3ccc(OCc4cccc(F)c4)c(Cl)c3)c2cc1NC(=O)CCCCC1CCSS1 (stereo not drawn)
Key: 82.8

----------
System: HCT-116 colon
Test: NCI-60 one-dose screen, 48 h
Conditions: 10 µM unless noted
Compounds without any hit were thinned out: in the full panel of roughly 83,000, 20% have a hit. The source made the active and inactive calls. The calls were made as follows: active = growth percent below 10; inactive = the rest.
The reply should name one outcome from TRUE for active, FALSE for inactive

Exercise: State the result this test recorded for OC(c1cc2cc(Cl)c(Cl)cc2c2cc(C(F)(F)F)ccc12)C1CCCCN1 (configuration not stated) .
Key: TRUE

Exercise: Note, next up: FC(F)(F)c1nc2c(NCc3ccc(-c4ccccc4)cc3)cccc2[nH]1
Key: FALSE

Exercise: Note, next up: CCCc1cc(=O)n2c(C(=O)Nc3cccc(C(=O)OCC)c3)c(C(=O)Nc3ccc(F)cc3)sc2n1
Key: FALSE

Exercise: Note, next up: CC/C=C\C[C@H](O)C/C=C1/C(=O)C=C[C@@]1(C)C/C=C\CCCC(=O)OC
Key: FALSE

Exercise: Note, next up: C=C(C)[C@@H]1CC[C@]2(C(=O)OC)CC[C@]3(C)[C@H](CC[C@@H]4[C@@]5(C)C/C(=C/c6cccc(I)c6)C(=O)C(C)(C)[C@@H]5CC[C@]43C)[C@@H]12
Key: FALSE

Exercise: Note, next up: CC(=O)O[C@H]1C(=O)[C@@]2(C)[C@H]([C@H](OC(=O)c3ccccc3)[C@]3(O)C[C@H](OC(=O)[C@H](OC(=O)CCC(=O)OC4CCC(S/N=C(N)/N=C(\N)N(C)C)CC4)[C@@H](NC(=O)c4ccccc4)c4ccccc4)C(C)=C1C3(C)C)[C@]1(OC(C)=O)CO[C@@H]1C[C@@H]2O (some centres not stated)
Key: TRUE

Exercise: Note, next up: CCOC(=O)c1c(C)oc2ncnc(N3CCN(C(=O)COc4ccc(SC)cc4)CC3)c12
Key: FALSE

----------
System: MDA-MB-231 breast
Experiment: NCI-60 one-dose screen, 48 h (100 = growth as untreated, 0 = no growth, -100 = all killed)
Settings: 10 µM unless noted
About 83,000 compounds went through this panel and 20% of them were active in at least one assay; those are over-represented in the sample as a whole.
Exercise: state measured growth for each of the compounds provided.
Quick reminder: number only, in %, skip the unit.

Exercise: growth of COc1ccc(/C=C/c2nc3ccccc3nc2/C=C/c2ccc(OC)cc2)cc1 on MDA-MB-231 breast?
Key: 111

Exercise: Note, next up: COc1cc(Nc2cc(C)nc(N3CCN(c4ccnc5cc(Cl)ccc45)CC3)n2)cc(OC)c1
Key: -35.1

Exercise: Note, next up: O=C(Cc1ccc(/C=C/C(=O)c2ncc[nH]2)cc1)Nc1ccccc1
Key: 70.7

Exercise: Note, next up: CC(=O)NCC1c2c(n(C)c3c(Cl)c(Cl)ccc23)C(=O)NC1(C)C (stereo not given)
Key: 112

Exercise: Note, next up: C=C1c2nc3ccccc3n2C=C(c2ccc(OC)cc2)N1Cc1ccccc1
Key: 100

Exercise: Note, next up: Clc1ccc2c(NCCNc3nc(N4CCCCC4)nc4ccccc34)ccnc2c1
Key: -85

Exercise: Note, next up: O=S(=O)(Nc1ccc(Cl)c(F)c1)c1ccc(-c2cnc(C3CC3)o2)cc1
Key: 37.8

Exercise: Note, next up: COc1cc(-c2nn(C)nc2-c2cc3ccccc3s2)cc(OC)c1OC
Key: 37.7

Exercise: Note, next up: CCCCN1CCCn2c1nc1c2c(=O)n(CCC)c(=O)n1CCC
Key: 93.8

Exercise: Note, next up: O=C1/C(=C/c2cn(-c3ccccc3)nc2-c2ccccc2)SC(=S)N1CCc1ccccc1
Key: 106
